system: Nuclear hormone receptor DAF-12 (Strongyloides stercoralis); test: S. stercoralis DAF-12 nuclear receptor activators, primary screen, cell-based, luminescence, HEK293, GRIP1 co-expression, lit1-tk-luc (AID 652126); details: HEK293 ssDAF-12/GRIP1 lit1-tk-luc reporter, at 6.8 µM, % of 3 µM dafachronic acid response;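 further: 0% = DMSO-only wells and 100% = 3 µM delta7-dafachronic acid wells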
Hit rate of the full screen: of about 370,000 compounds, about 3,700 (1%) were called active.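 How the source made its calls: active means activation above the mean over all tested compounds plus 3 SD (cut at about 0.9% in these data); inactive means the rest.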 This is one part of a sample in which actives are shown more often than they occur.
Mark one answer only. Choices: active, inactive

Some entries whose results are on file:
Compound | Label
COc1ccc2c(C(=O)c3ccc(C)cc3)n(CCC(N)=O)[n+]([O-])c2c1 | active
Cn1c(=NC(=O)c2ccco2)sc2cccc(F)c21 | active

Outcome logged for COC(=O)C(C)Oc1ccc2c(-c3cccc([N+](=O)[O-])c3)cc(=O)oc2c1 (stereo not given) in this assay:
inactive

Outcome logged for O=C(NCCc1c[nH]c2ccccc12)OCc1cn(-c2c(F)cccc2F)nn1 in this assay:
inactive

Outcome logged for O=S1(=O)c2c(NCc3ccco3)cccc2Oc2ccccc2CN1Cc1cn(Cc2cccc(C(F)(F)F)c2)nn1 in this assay:
inactive

Outcome logged for Cn1c(=O)c2c(nc(NCCNC(=O)c3ccco3)n2Cc2ccccc2F)n(C)c1=O in this assay:
inactive

Outcome logged for COc1ccc(C(=O)CC(=O)c2ccc(C)cc2)c(O)c1 in this assay:
inactive

====

system: Nuclear hormone receptor DAF-12 (Strongyloides stercoralis); experiment: S. stercoralis DAF-12 nuclear receptor activators, primary screen, cell-based, luminescence, HEK293, GRIP1 co-expression, lit1-tk-luc (AID 652126); conditions: HEK293 ssDAF-12/GRIP1 lit1-tk-luc reporter, at 6.8 µM, hits give high values, % of 3 µM dafachronic acid response;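 further: 0% = DMSO-only wells and 100% = 3 µM delta7-dafachronic acid wells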
Hit rate of the full screen: of about 370,000 compounds, about 3,700 (1%) were called active. The list comes from a sample in which actives are over-represented; it also holds close analogues and randomly drawn compounds.
Readout Kind: activation

Worked set:
Molecule | Test Value
CCOC(=O)c1c(NC(=S)SC)sc(C(=O)N2CCc3ccccc3C2)c1C | -0.64% (inactive)
C=CCn1c(SCC(=O)/C(C#N)=C(\C)N)nc2sc(C)c(C)c2c1=O | -1.37% (inactive)
CC(NCc1ccco1)C(=O)N1CCCCC1 (stereo not given) | -1.35% (inactive)
Cc1ccc(NC(=O)COc2coc(CN3CCc4ccccc4C3)cc2=O)cc1Cl | -1.76% (inactive)

I am curious: what activation value has been reported for CCOC(=O)[C@]12CCCC3=C1N(CCC3)C(=O)[C@@H](CC(=O)N1CCSCC1)C2 ?
0.21% (inactive)

I am curious: what activation value has been reported for CCCCNC(=O)C[C@@H]1C(=O)N(CCc2ccc(Cl)cc2)C2=CCCC[C@]21C(=O)OCC ?
-2.02% (inactive)

I am curious: what activation value has been reported for O=C(c1ccccc1)c1ccc(-c2ccccc2C(=O)NC2CCCCN(Cc3ccc(Cl)cc3)C2=O)cc1 (stereo not given) ?
-0.93% (inactive)

I am curious: what activation value has been reported for Cc1ccc(CN2CCCCC(NC(=O)C3CCCCC3)C2=O)cc1 (stereo not given) ?
-0.73% (inactive)

I am curious: what activation value has been reported for O=C(NC1CCCCN(Cc2cccc(C(F)(F)F)c2)C1=O)c1ccccc1I (stereo not given) ?
-1.74% (inactive)

I am curious: what activation value has been reported for C[C@@H]1ON(C)[C@H]2C[C@H]3c4[nH]c5cccc(-c6ccc7c(c6)OCO7)c5c4CCN3C[C@@H]12 ?
-0.56% (inactive)

====

tested on: Nuclear hormone receptor DAF-12 (Strongyloides stercoralis); assay: S. stercoralis DAF-12 nuclear receptor activators, primary screen, cell-based, luminescence, HEK293, GRIP1 co-expression, lit1-tk-luc (AID 652126); settings: HEK293 ssDAF-12/GRIP1 lit1-tk-luc reporter, at 6.8 µM, hits give high values, % of 3 µM dafachronic acid response;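 further: 0% = DMSO-only wells and 100% = 3 µM delta7-dafachronic acid wells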
Among all 370,000 compounds or so, about 3,700 (1%) were called active. Shown is part of a subset that was picked to be rich in actives.
Some compounds, each annotated with its measured activation.

Compound | activation
CCc1ccc2[nH]c(=O)c(Cc3ccccc3)c(O)c2c1 | -1.02% (inactive)
CCN(Cc1ccccc1)C(=O)CSc1nc(C)cc2c1C(=O)OC2 | -0.86% (inactive)

I am curious: what activation value has been reported for COc1ccccc1C1=Nc2cccc3cccc(c23)N1 ?
-1.81% (inactive)

I am curious: what activation value has been reported for CCC(=O)/C(=C(/O)c1ccccc1)c1nc2ccccc2[nH]1 ?
0.91% (active)

I am curious: what activation value has been reported for COc1ccccc1OCc1nc2ccccc2s1 ?
2.57% (active)

I am curious: what activation value has been reported for CCCS(=O)(=O)Nc1c(C(=O)O)[nH]c2ccccc12 ?
0.51% (inactive)

I am curious: what activation value has been reported for O=C(CSc1nc2ccccc2nc1N1CCCCC1)N1CCN(S(=O)(=O)c2cccc([N+](=O)[O-])c2)CC1 ?
-0.71% (inactive)

I am curious: what activation value has been reported for COC[C@@H]1CCCN1c1ccc2c(c1)O[C@H](C)CCN(C1CC1)S2(=O)=O ?
-1.91% (inactive)

I am curious: what activation value has been reported for CC/C(O)=C1\C(=O)CC(C)(C)CC1=NCCc1nc2ccccc2[nH]1 ?
-1.35% (inactive)

I am curious: what activation value has been reported for CCOC(=O)CSc1nc(C)cc2c1C(=O)OC2 ?
1.04% (active)

I am curious: what activation value has been reported for O=C(CSc1nc2c(c(=O)[nH]1)CCCC2)N1CCCCC1 ?
-1.67% (inactive)

I am curious: what activation value has been reported for O=C(OCc1cn(-c2ccc(Cl)c(Cl)c2)nn1)c1ccccc1Cl ?
-1.04% (inactive)

I am curious: what activation value has been reported for COc1ccc2c(c1)CN1CN(CCc3ccccc3)S(=O)(=O)CC21 (stereo not drawn) ?
-0.04% (inactive)

====

tested on: Nuclear hormone receptor DAF-12 (Strongyloides stercoralis); experiment: S. stercoralis DAF-12 nuclear receptor activators, primary screen, cell-based, luminescence, HEK293, GRIP1 co-expression, lit1-tk-luc (AID 652126); settings: HEK293 ssDAF-12/GRIP1 lit1-tk-luc reporter, at 6.8 µM, hits give high values, % of 3 µM dafachronic acid response;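 further: 0% = DMSO-only wells and 100% = 3 µM delta7-dafachronic acid wells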
About 3,700 (1%) of roughly 370,000 compounds were called active. The list comes from a sample in which actives are over-represented; it also holds close analogues and randomly drawn compounds.
Readout Kind: activation

Worked set:
Compound | Experimental System | Test Value
CCN(CCNC(=O)C1=C(C)C(=O)OC12CCC(C)CC2)c1ccccc1 (stereo unspecified) | Nuclear hormone receptor DAF-12 (Strongyloides stercoralis) | 3.96% (active)
c1ccc(C2c3[nH]c4ccccc4c3CCN2Cc2cccn2-c2cccnc2)nc1 (stereo unspecified) | Nuclear hormone receptor DAF-12 (Strongyloides stercoralis) | -1.17% (inactive)
CCC(c1ccc(NC(=O)OC(C)(C)C)cc1)c1cc(OC)cc(OC)c1 (stereo unspecified) | Nuclear hormone receptor DAF-12 (Strongyloides stercoralis) | -1.95% (inactive)
COc1ccc(C)cc1S(=O)(=O)NCCc1ccccc1 | Nuclear hormone receptor DAF-12 (Strongyloides stercoralis) | -0.72% (inactive)
CCn1c(NC(=O)c2nn(C)cc2Br)nc2ccccc21 | Nuclear hormone receptor DAF-12 (Strongyloides stercoralis) | -0.8% (inactive)

I am curious: what activation value has been reported for COCc1ccc(C(=O)N2CCc3c([nH]c4ccccc34)C2c2ccccn2)s1 (stereo unspecified) ?
-2.05% (inactive)

I am curious: what activation value has been reported for CCCCCN1CCCCC(NC(=O)C(C)CCC)C1=O (stereo unspecified) ?
-1.23% (inactive)

I am curious: what activation value has been reported for CSc1ccc(C=Nn2c(-c3ccc(F)cc3)n[nH]c2=S)cc1 ?
-1.67% (inactive)

I am curious: what activation value has been reported for CCOC(=O)C1CCN(S(=O)(=O)c2ccc3c(c2)N(C(C)=O)CCO3)CC1 ?
-1.19% (inactive)

I am curious: what activation value has been reported for COc1ccc(Cn2cc(CN3[C@@H](CC(C)C)COc4cc(Br)ccc4S3(=O)=O)nn2)cc1 ?
-0.66% (inactive)

I am curious: what activation value has been reported for CC1CCN(C(=O)CCNC(=O)c2ccccc2)CC1 ?
-0.14% (inactive)

====

Some molecules, each annotated with its measured activation.
tested on: Nuclear hormone receptor DAF-12 (Strongyloides stercoralis); test: S. stercoralis DAF-12 nuclear receptor activators, primary screen, cell-based, luminescence, HEK293, GRIP1 co-expression, lit1-tk-luc (AID 652126); settings: HEK293 ssDAF-12/GRIP1 lit1-tk-luc reporter, at 6.8 µM, hits give high values, % of 3 µM dafachronic acid response;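 further: 0% = DMSO-only wells and 100% = 3 µM delta7-dafachronic acid wells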
Out of some 370,000 compounds screened, about 3,700 (1%) were called active. Shown is part of a subset that was picked to be rich in actives.
Just the number please, in %, no unit attached.

Molecule | Experimental System | Unit Abbreviation | activation
CN(C)S(=O)(=O)c1cccc(C(=O)N/N=C\c2ccco2)c1 | Nuclear hormone receptor DAF-12 (Strongyloides stercoralis) | % | -0.66
Cc1ccccc1CN1CCCCC(NC(=O)Nc2ccccc2F)C1=O (stereo not given) | Nuclear hormone receptor DAF-12 (Strongyloides stercoralis) | % | -1.37
COC(=O)c1ccccc1-n1cc(COC(=O)NCCc2ccccc2)nn1 | Nuclear hormone receptor DAF-12 (Strongyloides stercoralis) | % | -1.12
CCn1c(=O)n2n(c1=O)[C@@]1(C=C3CCCC[C@H]32)N=C(NC(=O)c2ccccc2)N(Cc2ccccc2)[C@H]1Cc1ccccc1 | Nuclear hormone receptor DAF-12 (Strongyloides stercoralis) | % | -1.66
C#CCN([C@H](C(=O)OC)C(C)CC)S(=O)(=O)c1ccccc1Br (stereo not given in full) | Nuclear hormone receptor DAF-12 (Strongyloides stercoralis) | % | -1.85
Cc1ccc(CSc2nnc(SCC(=O)NN=Cc3cc(Br)ccc3F)s2)cc1 | Nuclear hormone receptor DAF-12 (Strongyloides stercoralis) | % | -1.54
Cc1cc(N=Nc2ccc3ccccc3c2)ccc1O | Nuclear hormone receptor DAF-12 (Strongyloides stercoralis) | % | 1.92
Cc1ccc(NC(=O)Cc2cccc(F)c2)c(S(=O)(=O)N2CCOCC2)c1 | Nuclear hormone receptor DAF-12 (Strongyloides stercoralis) | % | -0.55

I am curious: what activation value has been reported for COc1cccc(N2CCN(CC(=O)N(C)Cc3ccc(F)cc3)CC2)c1 ?
-1.79

I am curious: what activation value has been reported for COC(=O)Cc1cc(=O)oc2c(C)c(O)ccc12 ?
-1
